# SYSTEM TESTED: human ferroportin (Homo sapiens, UniProt Q9NP59)
# Construct: luciferase reporter (probably NanoLuc: read with the Nano-Glo Luciferase Assay System); expressed in transfected cells; host or cells: CHO cells, stably transfected, doxycycline-inducible expression
# Sequence (Q9NP59 1-571): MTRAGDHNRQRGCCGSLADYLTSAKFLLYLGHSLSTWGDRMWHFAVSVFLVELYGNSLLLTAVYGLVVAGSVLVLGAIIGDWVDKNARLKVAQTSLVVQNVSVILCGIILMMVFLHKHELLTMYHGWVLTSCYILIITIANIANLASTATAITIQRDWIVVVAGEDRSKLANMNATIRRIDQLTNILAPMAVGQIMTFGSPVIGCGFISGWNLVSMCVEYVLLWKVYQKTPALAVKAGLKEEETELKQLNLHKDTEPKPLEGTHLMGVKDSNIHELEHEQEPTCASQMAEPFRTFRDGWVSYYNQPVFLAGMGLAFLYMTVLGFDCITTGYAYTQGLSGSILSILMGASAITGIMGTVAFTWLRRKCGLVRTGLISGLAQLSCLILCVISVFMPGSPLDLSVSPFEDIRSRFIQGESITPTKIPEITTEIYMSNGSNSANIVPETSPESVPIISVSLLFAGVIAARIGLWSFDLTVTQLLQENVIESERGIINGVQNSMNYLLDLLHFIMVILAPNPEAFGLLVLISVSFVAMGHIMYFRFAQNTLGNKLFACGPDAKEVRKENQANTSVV
# PROCEDURE SUMMARY: In-vitro ferroportin internalization assay (luciferase reporter)
# Format: cell-based
# PARTICULARS: average pEC50; stably-transfected CHO cell line expressing human ferroportin tagged to a luciferase reporter; 6 h incubation with test compounds
MEASUREMENT KIND: pEC50

> print(dat)
                                    compound  readout.value
 1  c1ccc(CNc2ncnc3sc(CCNCCc4nc5ccccc5[nH]4)nc23)cc1 [Compound 4]            6.6
 2  Fc1cccnc1CNc1ncnc2sc(CCNCCc3ncc(Cc4ccccc4)[nH]3)nc12 [Compound 43]            8.4
 3  Nc1nc(NCc2ncccc2F)c2nc(CCNCCc3nc4ccccc4[nH]3)sc2n1 [Compound 21]            6.2
 4  Cc1nc(-c2ccc(Cl)s2)c(CNCCc2nc3c(NCc4ncccc4F)ncnc3s2)[nH]1 [Compound 70]            5.6
 5  Fc1cccnc1CNc1nccc2oc([C@H](F)CNCCc3nc4ccccc4[nH]3)nc12 [Compound 74]            6.9
 6  C[C@@H](CNCCc1nc2c(NCc3ncccc3F)ncnc2s1)c1nc2ccccc2[nH]1 [Compound 53]            7.3
 7  Cc1cc2nc(CCNCCc3nc4c(NCc5ncccc5F)ncnc4s3)[nH]c2cc1C [Compound 46]            7.1
 8  Fc1cccnc1CNc1ncnc2sc(CCNCCc3ncc(-c4ccccn4)[nH]3)nc12 [Compound 65]            6.2
 9  Fc1cccnc1CNc1ncnc2sc(C3(F)CN(CCc4nc5ccccc5[nH]4)C3)nc12 [Compound 25]            6.3
10  Fc1cccnc1CNc1ncnc2sc(CCNCCc3nc4cnccc4[nH]3)nc12 [Compound 37]            5.6
11  CC(CNCCc1nc2c(NCc3ncccc3F)nccc2o1)c1nc2ccccc2[nH]1 (stereo not drawn) [Compound 61]            6.9
12  Fc1cccnc1CNc1nccc2oc([C@@H](F)CNCCc3nc4ccccc4[nH]3)nc12 [Compound 75]            7.1
13  C#CCCC1(CCC(=O)Nc2ccc3[nH]c(CCNCCc4nc5c(NCc6ncccc6F)ncnc5s4)nc3c2)N=N1 [Compound 22]            6.5
14  Oc1cc2oc(CCNCCc3nc4ccccc4[nH]3)nc2c(NCc2ncccc2F)n1 [Compound 59]            6.2
15  Fc1ccc2[nH]c(CCNCCc3nc4c(NCc5ncccc5F)ncnc4s3)nc2c1 [Compound 3]            7.1
16  Fc1cccnc1CNc1ncnc2sc(CCNCCc3nc4c(F)cccc4[nH]3)nc12 [Compound 15]            6.8
17  Clc1cccnc1CNc1ncnc2sc(CCNCCc3nc4ccccc4[nH]3)nc12 [Compound 6]            7.8
18  Fc1cccnc1CNc1nccc2oc(CCNCCc3ncc[nH]3)nc12 [Compound 58]            5.7
19  Fc1cccc(-c2cnc(CCNCCc3nc4c(NCc5ncccc5F)ncnc4s3)[nH]2)c1 [Compound 67]            6.2
20  Fc1cccnc1CNc1ncnc2sc(CCNCCc3nc4ccccc4o3)nc12 [Compound 16]            5.6
21  OC(CNCCc1nc2c(NCc3ncccc3F)ncnc2s1)c1nc2ccccc2[nH]1 (stereo not drawn) [Compound 50]            5.1
22  COc1nc(NCc2ncccc2F)c2nc(CCNCCc3nc4ccccc4[nH]3)sc2n1 [Compound 18]            5.7
23  C#CCCC1(CCC(=O)NCc2ccc3[nH]c(CCNCCc4nc5c(NCc6ncccc6F)ncnc5s4)nc3c2)N=N1 [Compound 39]            6.9
24  Fc1cccnc1CNc1nccc2oc(CCNCCc3ncc(-c4ccccc4)[nH]3)nc12 [Compound 48]              7
25  CC(Cc1nc2ccccc2[nH]1)NCCc1nc2c(NCc3ncccc3F)ncnc2s1 (stereo not drawn) [Compound 40]            6.2
26  Fc1cccnc1CNc1ncnc2sc(C3CN(CCc4nc5ccccc5[nH]4)C3)nc12 [Compound 20]            7.5
27  Cc1ncc(-c2cc(CNCCc3nc4c(NCc5ncccc5F)ncnc4s3)c(Cl)s2)[nH]1 [Compound 69]            5.2
28  Fc1cccnc1CNc1nccc2oc(C(F)(F)CNCCc3nc4ccccc4[nH]3)nc12 [Compound 81]            6.3
29  [N-]=[N+]=Nc1cccnc1CNc1ncnc2sc(CCNCCc3nc4cc(I)ccc4[nH]3)nc12 [Compound 32]            6.9
30  Fc1cccnc1CNc1ncnc2sc([C@H](F)CNCCc3nc4ccccc4[nH]3)nc12 [Compound 77]            7.8
31  Cc1cnc(CCNCCc2nc3c(NCc4ncccc4F)nccc3o2)[nH]1 [Compound 56]            6.7

---

# SYSTEM TESTED: human ferroportin (Homo sapiens, UniProt Q9NP59)
# Construct: luciferase reporter (probably NanoLuc: read with the Nano-Glo Luciferase Assay System); expressed in transfected cells; host or cells: CHO cells, stably transfected, doxycycline-inducible expression
# PROCEDURE SUMMARY: In-vitro ferroportin internalization assay (luciferase reporter)
# Type: cell-based
# PARTICULARS: average pEC50; stably-transfected CHO cell line expressing human ferroportin tagged to a luciferase reporter; 6 h incubation with test compounds
MEASUREMENT KIND: pEC50

GIVEN SMILES	pEC50
Oc1nc(NCc2ncccc2F)c2nc(CCNCCc3nc4ccccc4[nH]3)oc2n1	6.4
Fc1cccnc1CNc1nccc2oc(CCNCCc3nc4ccccc4[nH]3)nc12	8
Fc1cccnc1CNc1ncnc2sc(CCNCCc3ncc(-c4ccc(Cl)s4)[nH]3)nc12	6.4
O=C(CCC1(CCc2cn(CCCNC(=O)c3ccc4c(c3)C3(OC4=O)c4ccc(O)cc4Oc4cc(O)ccc43)nn2)N=N1)Nc1ccc2[nH]c(CCNCCc3nc4c(NCc5ncccc5F)ncnc4s3)nc2c1	5.8
CC(=O)NOc1nc(NCc2ncccc2F)c2nc(CCNCCc3nc4ccccc4[nH]3)sc2n1	5.2
Cc1cccnc1CNc1ncnc2sc(CCNCCc3nc4ccccc4[nH]3)nc12	7.3
c1cnc(CNc2ncnc3sc(CCNCCc4nc5ccccc5[nH]4)nc23)nc1	6.3

---

# SYSTEM TESTED: human ferroportin (Homo sapiens)
# Construct: luciferase reporter (probably NanoLuc: read with the Nano-Glo Luciferase Assay System); expressed in transfected cells; host or cells: CHO cells, stably transfected, doxycycline-inducible expression
# PROCEDURE SUMMARY: In-vitro ferroportin internalization assay (luciferase reporter)
# Assay type: cell-based
# PARTICULARS: average pEC50; stably-transfected CHO cell line expressing human ferroportin tagged to a luciferase reporter; 6 h incubation with test compounds
MEASUREMENT KIND: pEC50

Use the examples below as a reference point.
> print(dat)
                               given.smiles  readout.value
1  COC(=O)c1ccc2[nH]c(CCNCCc3nc4c(NCc5ncccc5F)ncnc4s3)nc2c1            6.2
2  Cc1nc(NCc2ncccc2F)c2nc(CCNCCc3nc4ccccc4[nH]3)sc2n1            5.6
3  Fc1cccnc1CNc1nccc2sc(CCNCCc3nc4ccccc4[nH]3)nc12            7.8
4  COc1cccnc1CNc1ncnc2sc(CCNCCc3nc4ccccc4[nH]3)nc12            6.7
5  Fc1cccnc1CNc1nccc2sc([C@H](F)CNCCc3nc4ccccc4[nH]3)nc12            6.4

1: Fc1cccnc1CNc1nccc2oc(CCNCCc3ncc(C(F)(F)F)[nH]3)nc12
2: Cc1nc(CCNCCc2nc3c(NCc4ncccc4F)nc(O)nc3s2)[nH]c1C
IN: Lab log: flag the item ( 1 or 2 ) with the smaller pEC50 figure. Please identify the chosen entry by its label.
OUT: 1
(1: 5.4, 2: 8.1)
